- TESTED SYSTEM: Factor X (FX), P00742
- Sequence (P00742 whole entry, looked up): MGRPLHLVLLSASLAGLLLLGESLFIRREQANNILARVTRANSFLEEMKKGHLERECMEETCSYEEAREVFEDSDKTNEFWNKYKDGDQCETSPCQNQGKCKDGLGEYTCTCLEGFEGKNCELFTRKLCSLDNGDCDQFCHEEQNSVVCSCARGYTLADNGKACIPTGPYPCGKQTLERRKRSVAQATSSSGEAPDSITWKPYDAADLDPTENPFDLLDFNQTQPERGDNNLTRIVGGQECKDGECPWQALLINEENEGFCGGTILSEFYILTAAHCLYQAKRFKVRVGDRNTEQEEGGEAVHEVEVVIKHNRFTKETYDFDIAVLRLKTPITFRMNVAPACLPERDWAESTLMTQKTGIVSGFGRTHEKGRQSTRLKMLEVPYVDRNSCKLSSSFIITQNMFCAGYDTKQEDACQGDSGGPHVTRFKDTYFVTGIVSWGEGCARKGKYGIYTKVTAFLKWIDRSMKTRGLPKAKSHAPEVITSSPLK
QUANTITY NAME: KM (FX activation by FIXa in the Xase complex with FVIIIa, PC/PS vesicles and Ca2+) (nM)
Write the value in nM as a bare number.

// KM (FX activation by FIXa in the Xase complex with FVIIIa, PC/PS vesicles and Ca2+) lookup, protein = FIXa I251S/R318Y/R338E/R403E/E410N (protein) chain 1: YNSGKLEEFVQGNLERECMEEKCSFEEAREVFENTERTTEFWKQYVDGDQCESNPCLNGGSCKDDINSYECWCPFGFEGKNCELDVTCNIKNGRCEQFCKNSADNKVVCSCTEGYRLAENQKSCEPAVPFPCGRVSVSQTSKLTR chain 2: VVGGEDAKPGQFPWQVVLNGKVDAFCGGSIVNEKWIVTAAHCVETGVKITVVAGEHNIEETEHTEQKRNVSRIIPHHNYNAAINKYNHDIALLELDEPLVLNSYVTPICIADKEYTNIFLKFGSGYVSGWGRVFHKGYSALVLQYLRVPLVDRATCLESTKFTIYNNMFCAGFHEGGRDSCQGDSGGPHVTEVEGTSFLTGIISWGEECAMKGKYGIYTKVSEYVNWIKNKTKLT , result: 33.4
